Source: ChEMBL document CHEMBL4354822

# ASSAY_INFO: Selectivity index, ratio of CC50 for human MT4 cells to EC50 for antiviral activity against HIV1 3B infected in human MT4 cells incubated for 5 days by MTT assay
# Assay type: toxicity, cell-based
# RUN_CONDITIONS: MT4 cells (uninfected for CC50; HIV-1 3B infected for EC50)
Listed compounds paired with reported selectivity ratio at 120 h

| SAMPLE_SMILES | MEASURED_RESULT |
| --- | --- |
| Cc1cc(-c2ccc(C#N)cc2)ccc1Nc1ccnc(Nc2ccc(C#N)cc2)n1 | 4480 |
| N#Cc1ccc(Nc2nccc(Oc3ccc(-c4ccc(C#N)cc4)c(F)c3)n2)cc1 | > 98000 |

## Task Using the record for COc1cc(Nc2ccnc(Nc3ccc(C#N)cc3)n2)ccc1-c1ccc(C#N)cc1 , report its selectivity ratio at 120 h.
## Result 304

## Task Try Cc1cc(Nc2ccnc(Nc3ccc(C#N)cc3)n2)ccc1-c1ccc(C#N)cc1 next.
## Result 894

## Task Try N#Cc1ccc(Nc2nccc(Nc3ccc(-c4ccc(C#N)cc4)cc3F)n2)cc1 next.
## Result > 27300

## Task Try COc1cc(-c2ccc(C#N)cc2)ccc1Oc1ccnc(Nc2ccc(C#N)cc2)n1 next.
## Result > 192000

## Task Try N#Cc1ccc(Nc2nccc(Nc3ccc(-c4ccc(C#N)cc4)c(F)c3)n2)cc1 next.
## Result > 18600

## Task Try N#Cc1ccc(Nc2nccc(Oc3ccc(-c4ccc(C#N)cc4)cc3C(F)(F)F)n2)cc1 next.
## Result > 40600

## Task Try COc1cc(Oc2ccnc(Nc3ccc(C#N)cc3)n2)ccc1-c1ccc(C#N)cc1 next.
## Result > 100000

## Task Try N#Cc1ccc(Nc2nccc(Oc3ccc(-c4ccc(C#N)c(F)c4)cc3F)n2)cc1 next.
## Result > 2430
